All values here come from ChEMBL document CHEMBL3885861.

# Species on record: Rattus norvegicus
# Run Description: Open TG-GATES - Regimen: Daily Repeat
# Assay type: toxicity, organism-based, Sprague-Dawley
# Parameters: regimen Daily Repeat, gender Male, age 6 weeks
# Condition Summary: in vivo, po, 0 mg/kg, 72 h, tissue Blood, route gavage, dose level Control, time 3 day
For each of the compounds below, state its Mono.
Form entry: enter the amount, then its unit.

Q: Form field: reported Mono of CN(C)CCN(Cc1cccs1)c1ccccn1
A: 1.8%

Q: Form field: reported Mono of NNC(=O)c1ccncc1
A: 8.8%

Q: Form field: reported Mono of CC(C)OC(=O)C(C)(C)Oc1ccc(C(=O)c2ccc(Cl)cc2)cc1 [FENOFIBRATE]
A: 3.2%

Q: Form field: reported Mono of CCOc1ccc(NC(=O)CC(C)O)cc1 (stereo not drawn)
A: 3%

Q: Form field: reported Mono of CC1=C(/C=C/C(C)=C/C=C/C(C)=C/CO)C(C)(C)CCC1
A: 2.8%

Q: Form field: reported Mono of CN1C(=O)CN=C(c2ccccc2)c2cc(Cl)ccc21
A: 6.4%

Q: Form field: reported Mono of CCOC(=O)CCC(=O)O[C@H]1[C@H](O[C@@H]2[C@@H](C)[C@H](O[C@H]3C[C@@](C)(OC)[C@@H](O)[C@H](C)O3)[C@@H](C)C(=O)O[C@H](CC)[C@@](C)(O)[C@H](O)[C@@H](C)C(=O)[C@H](C)C[C@@]2(C)O)O[C@H](C)C[C@@H]1N(C)C [ERYTHROMYCIN ETHYLSUCCINATE]
A: 3.4%

Q: Form field: reported Mono of O=C(CCCN1CCC(O)(c2ccc(Cl)cc2)CC1)c1ccc(F)cc1
A: 4%

Q: Form field: reported Mono of COC1=CC(=O)C[C@@H](C)[C@]12Oc1c(Cl)c(OC)cc(OC)c1C2=O
A: 2.4%

Q: Form field: reported Mono of CCCNC(=O)NS(=O)(=O)c1ccc(Cl)cc1 [CHLORPROPAMIDE]
A: 4%

Q: Form field: reported Mono of CN(C)CCCN1c2ccccc2CCc2ccccc21
A: 3%

Q: Form field: reported Mono of NC(N)=Nc1nc(CSCCC(N)=NS(N)(=O)=O)cs1
A: 3.2%

Q: Form field: reported Mono of COc1ccc2[nH]c([S+]([O-])Cc3ncc(C)c(OC)c3C)nc2c1 (stereo not drawn)
A: 3%

====

# Organism: Rattus norvegicus
# Run Description: Open TG-GATES - Regimen: Daily Repeat
# Type: toxicity, organism-based, Sprague-Dawley
# Design: regimen Daily Repeat, gender Male, age 6 weeks
# Condition Summary: in vivo, po, 0 mg/kg, 72 h, tissue Plasma, route gavage, dose level Control, time 3 day
// label = satisfied if A/G is not less than 1, otherwise not satisfied

Q: Hello, I need to know if NC(N)=Nc1nc(CSCCC(N)=NS(N)(=O)=O)cs1 has measured A/G not below 1. Thanks!
A: satisfied

Q: Hello, I need to know if CCCNC(=O)NS(=O)(=O)c1ccc(Cl)cc1 [CHLORPROPAMIDE] has measured A/G not below 1. Thanks!
A: not satisfied

Q: Hello, I need to know if CN(C)CCN(Cc1cccs1)c1ccccn1 has measured A/G not below 1. Thanks!
A: satisfied

Q: Hello, I need to know if COC1=CC(=O)C[C@@H](C)[C@]12Oc1c(Cl)c(OC)cc(OC)c1C2=O has measured A/G not below 1. Thanks!
A: satisfied

Q: Hello, I need to know if CC1=C(/C=C/C(C)=C/C=C/C(C)=C/CO)C(C)(C)CCC1 has measured A/G not below 1. Thanks!
A: satisfied

Q: Hello, I need to know if CCOc1ccc(NC(=O)CC(C)O)cc1 (stereo not drawn) has measured A/G not below 1. Thanks!
A: not satisfied

Q: Hello, I need to know if NNC(=O)c1ccncc1 has measured A/G not below 1. Thanks!
A: satisfied

Q: Hello, I need to know if CCOC(=O)CCC(=O)O[C@H]1[C@H](O[C@@H]2[C@@H](C)[C@H](O[C@H]3C[C@@](C)(OC)[C@@H](O)[C@H](C)O3)[C@@H](C)C(=O)O[C@H](CC)[C@@](C)(O)[C@H](O)[C@@H](C)C(=O)[C@H](C)C[C@@]2(C)O)O[C@H](C)C[C@@H]1N(C)C [ERYTHROMYCIN ETHYLSUCCINATE] has measured A/G not below 1. Thanks!
A: satisfied

====

For each of the molecules below, state its GLC.
# Organism: Rattus norvegicus
# Run Description: Open TG-GATES - Regimen: Single
# Format: toxicity, organism-based, Sprague-Dawley
# Design: regimen Single, gender Male, age 6 weeks
# Condition Summary: in vivo, po, 100 mg/kg, 3 h, tissue Plasma, route gavage, dose level High
# unit: mg/dL | format: bare number

Q: Form field: reported GLC of CC1=C(/C=C/C(C)=C/C=C/C(C)=C/CO)C(C)(C)CCC1
A: 182

Q: Form field: reported GLC of CN(C)CCCN1c2ccccc2CCc2ccc(Cl)cc21
A: 188.8

Q: Form field: reported GLC of CN(C)CCCN1c2ccccc2CCc2ccccc21
A: 190.8

Q: Form field: reported GLC of CN(C)CCN(Cc1cccs1)c1ccccn1
A: 185

====

For each of the compounds below, state its IP.
# Species: Rattus norvegicus
# Run Description: Open TG-GATES - Regimen: Daily Repeat
# Format: toxicity, organism-based, Sprague-Dawley
# Set-up: regimen Daily Repeat, gender Male, age 6 weeks
# Condition Summary: in vivo, po, 10 mg/kg, […], tissue Plasma, route gavage, dose level Low, time 14 day

Q: Form field: reported IP of CC1=C(/C=C/C(C)=C/C=C/C(C)=C/CO)C(C)(C)CCC1
A: 5.7 mg/dL

Q: Form field: reported IP of CC(C)OC(=O)C(C)(C)Oc1ccc(C(=O)c2ccc(Cl)cc2)cc1 [FENOFIBRATE]
A: 7.7 mg/dL

Q: Form field: reported IP of CN(C)CCCN1c2ccccc2CCc2ccccc21
A: 6.8 mg/dL

Q: Form field: reported IP of CN(C)CCN(Cc1cccs1)c1ccccn1
A: 6.7 mg/dL

====

# Species: Rattus norvegicus
# Run Description: Open TG-GATES - Regimen: Daily Repeat
# Type: toxicity, organism-based, Sprague-Dawley
# Set-up: regimen Daily Repeat, gender Male, age 6 weeks
# Condition Summary: in vivo, po, 0 mg/kg, […], tissue Blood, route gavage, dose level Control, time 14 day
For each of the compounds below, state its MCHC.
Form entry: enter the amount, then its unit.

Q: Form field: reported MCHC of NNC(=O)c1ccncc1 [ISONIAZID]
A: 33.5%

Q: Form field: reported MCHC of CCOC(=O)CCC(=O)O[C@H]1[C@H](O[C@@H]2[C@@H](C)[C@H](O[C@H]3C[C@@](C)(OC)[C@@H](O)[C@H](C)O3)[C@@H](C)C(=O)O[C@H](CC)[C@@](C)(O)[C@H](O)[C@@H](C)C(=O)[C@H](C)C[C@@]2(C)O)O[C@H](C)C[C@@H]1N(C)C [ERYTHROMYCIN ETHYLSUCCINATE]
A: 34.5%

Q: Form field: reported MCHC of O=C(CCCN1CCC(O)(c2ccc(Cl)cc2)CC1)c1ccc(F)cc1 [HALOPERIDOL]
A: 33.3%

Q: Form field: reported MCHC of CCCNC(=O)NS(=O)(=O)c1ccc(Cl)cc1 [CHLORPROPAMIDE]
A: 33.8%

Q: Form field: reported MCHC of CC1=C(/C=C/C(C)=C/C=C/C(C)=C/CO)C(C)(C)CCC1 [RETINOL]
A: 35.4%

Q: Form field: reported MCHC of CC(C)OC(=O)C(C)(C)Oc1ccc(C(=O)c2ccc(Cl)cc2)cc1 [FENOFIBRATE]
A: 33.2%

Q: Form field: reported MCHC of CN(C)CCN(Cc1cccs1)c1ccccn1
A: 34.2%

Q: Form field: reported MCHC of CN1C(=O)CN=C(c2ccccc2)c2cc(Cl)ccc21 [DIAZEPAM]
A: 33.3%

Q: Form field: reported MCHC of COc1ccc2[nH]c([S+]([O-])Cc3ncc(C)c(OC)c3C)nc2c1 (stereo not drawn) [OMEPRAZOLE]
A: 34.6%

Q: Form field: reported MCHC of NC(N)=Nc1nc(CSCCC(N)=NS(N)(=O)=O)cs1 [FAMOTIDINE]
A: 34.1%

Q: Form field: reported MCHC of CN(C)CCCN1c2ccccc2CCc2ccccc21 [IMIPRAMINE]
A: 33.2%

Q: Form field: reported MCHC of COC1=CC(=O)C[C@@H](C)[C@]12Oc1c(Cl)c(OC)cc(OC)c1C2=O [GRISEOFULVIN]
A: 33.4%

Q: Form field: reported MCHC of CCOc1ccc(NC(=O)CC(C)O)cc1 (stereo not drawn) [BUCETIN]
A: 33.6%
